Source listed as ChEMBL document CHEMBL1201862.

# System: ACHN
# testDetails: NCI tumour cell line growth inhibition, 48 h
Active and inactive are the calls of the source. No stated cut-off is given here; in the data, active = GI50 up to about 1.1 µM and inactive = higher.
The reply should name one outcome from active, inactive

Below are worked cases with known answers.
Hi, sorry to bother you, what did the test record for O=C1/C(=C/c2ccccc2)N=C(c2ccccc2)N1n1c(-c2ccccc2)nc2ccccc2c1=O ?
inactive

Hi, sorry to bother you, what did the test record for O=C1C=C(OCCCCl)C(=O)c2c(O)ccc(O)c21 ?
inactive

Hi, sorry to bother you, what did the test record for COc1ccccc1NC(=O)/C(Cc1nc2ccc([N+](=O)[O-])cc2nc1O)=N\NC(=O)C[N+](C)(C)C ?
inactive

Hi, sorry to bother you, what did the test record for CCOC(=O)Oc1cc2c(c(OC)c1OC)-c1ccc(OC)c(=O)cc1C(NC(C)=O)CC2 (stereo unspecified) ?
active

Hi, sorry to bother you, what did the test record for CC(C)C1NC(=O)[C@H](C)OC(=O)[C@@H](C(C)C)NC(=O)[C@@H](C)OC(=O)C(C(C)C)NC(=O)[C@H](C)OC1=O (stereo partly specified) ?
inactive

---
Hi, sorry to bother you, what did the test record for C[C@H](CCC(=O)NCCS(=O)(=O)O)[C@H]1CC[C@H]2[C@@H]3[C@H](O)C[C@@H]4C[C@H](O)CC[C@]4(C)[C@H]3CC[C@]12C ?
inactive

Hi, sorry to bother you, what did the test record for O1C2C1C1OC1C1OC1C1OC21 (stereo unspecified) ?
inactive

Hi, sorry to bother you, what did the test record for CCCCCCc1ccc(C(=O)NO)cc1 ?
inactive

Hi, sorry to bother you, what did the test record for CC1(C)Oc2ccc3ccc(=O)oc3c2C(O)C1O (stereo unspecified) ?
inactive

Hi, sorry to bother you, what did the test record for CCOC(OC(C)=O)[C@@H]1C=C[C@H](C)N(c2ccc([N+](=O)[O-])cc2)O1 (stereo partly specified) ?
inactive

Hi, sorry to bother you, what did the test record for COc1cc(-c2cc(=O)c3cc(C)c(C)c(C(=O)O)c3o2)cc(OC)c1OC ?
inactive

Hi, sorry to bother you, what did the test record for O=C(Nc1ccn(C2CC(I)C(COC(c3ccccc3)(c3ccccc3)c3ccccc3)O2)c(=O)n1)c1ccccc1 (stereo unspecified) ?
inactive

Hi, sorry to bother you, what did the test record for CCOC(=O)NC(=O)c1cn(CCNCCO)c(=O)[nH]c1=O ?
inactive

Hi, sorry to bother you, what did the test record for COc1cc2c(Cc3cc(OCc4ccccc4)ccc3N)nccc2c(OC)c1OC ?
inactive

====

# System: HCC 2998
# testDetails: NCI tumour cell line growth inhibition, 48 h
Active and inactive are the calls of the source. Cut-off read from the data, not from the text of the source: active = GI50 up to about 1.1 µM and inactive = higher.
The reply should name one outcome from active, inactive

Below are worked cases with known answers.
Hi, sorry to bother you, what did the test record for COC(=O)C(CC(=O)c1ccccc1)c1ccccc1NC(C)=O (configuration not stated) ?
inactive

Hi, sorry to bother you, what did the test record for Nc1nc(=O)n(CC(O)CO)s1 (configuration not stated) ?
inactive

Hi, sorry to bother you, what did the test record for COc1ccc(-c2cc(=O)c3ccc(O)cc3o2)cc1OC ?
inactive

Hi, sorry to bother you, what did the test record for O=C(/C=C/c1ccc(O)c(O)c1)OCCCc1ccccc1 ?
inactive

Hi, sorry to bother you, what did the test record for C/C(=N\NC(C)(C)C)c1sc(-c2nc(C)c(/C(C)=N/NC(C)(C)C)s2)nc1C ?
inactive

Hi, sorry to bother you, what did the test record for O=C(Nc1ccc(C(F)(F)F)cc1[N+](=O)[O-])c1cccnc1 ?
inactive

Hi, sorry to bother you, what did the test record for COC(=O)[C@H](C)NC(=O)[C@H](CSC)N1C(=O)N[C@@H](C(C)C)C1=O ?
inactive

Hi, sorry to bother you, what did the test record for O=C(COc1ccc(OCC(=O)N2C(=O)CN(c3ccccc3)C2=S)cc1)N1C(=O)CN(c2ccccc2)C1=S ?
inactive

---
Hi, sorry to bother you, what did the test record for COC(=O)c1ccccc1C#CCCCOS(C)(=O)=O ?
inactive

====

# Tested on: LOX IMVI
# testDetails: NCI tumour cell line growth inhibition, 48 h
Activity calls are given as the source filed them. Cut-off read from the data, not from the text of the source: active = GI50 up to about 1.1 µM and inactive = higher.
# GI50 listing for each entry below

Below are worked cases with known answers.
Dear colleague, please send me the reported GI50 for COc1ccc(/N=c2\ssc(C(=S)Nc3ccc(OC)cc3)c2S)cc1 when you can.
> 100 µM (inactive)

Dear colleague, please send me the reported GI50 for CC(=O)NC(Cc1ccsc1)C(=O)O (stereo not drawn) when you can.
> 100 µM (inactive)

---
Dear colleague, please send me the reported GI50 for CC12C/C(=C\c3ccccc3)C(=O)C3C1CCCC32 when you can.
72.8 µM (inactive)

Dear colleague, please send me the reported GI50 for Cc1ccc(S(N)(=O)=O)cc1 [P-TOLUENESULFONAMIDE] when you can.
> 1000 µM (inactive)

====

# System: BT-549
# testDetails: NCI tumour cell line growth inhibition, 48 h
Calls of active or inactive are those of the source. No stated cut-off is given here; in the data, active = GI50 up to about 1.1 µM and inactive = higher.
The reply should name one outcome from label 1 = active, label 0 = inactive

Hi, sorry to bother you, what did the test record for O=C1C=C(OCCCCl)C(=O)c2c(O)ccc(O)c21 ?
label 1

Hi, sorry to bother you, what did the test record for CCN1CCCC(Nc2cc(C)nc(NC(=N)Nc3ccc(Cl)c(Cl)c3)n2)C1 (configuration not stated) ?
label 0

Hi, sorry to bother you, what did the test record for Cc1cc(C)c2c(c1)C(=O)/C(=C/c1ccccc1C(=O)O)C2 ?
label 0

Hi, sorry to bother you, what did the test record for C/C(Cl)=N/OC(=O)Nc1ccc(S(N)(=O)=O)c(C)c1 ?
label 0

Hi, sorry to bother you, what did the test record for Nc1ncnc2c1sc1nc3ccccc3n12 ?
label 0

Hi, sorry to bother you, what did the test record for N#CC(C#N)=Cc1c[nH]c(=O)[nH]c1=O ?
label 0

Hi, sorry to bother you, what did the test record for Cc1ccc([S+]([O-])C[C@](NC(=O)OCc2ccccc2)(Sc2ccccc2)C(F)F)cc1 (some centres not stated) ?
label 0

Hi, sorry to bother you, what did the test record for Cc1c(O)nc(/C=C/C(=O)O)nc1C(=O)O ?
label 0

---
Hi, sorry to bother you, what did the test record for COc1cc2c(/C=C3/C(=O)N(C)c4ccccc43)c(Cl)[nH]c2cc1C ?
label 1

Hi, sorry to bother you, what did the test record for CC(C)(C)OC(=O)NCCCCC(NC(=O)c1ccccc1)C(N)=O (configuration not stated) ?
label 0

Hi, sorry to bother you, what did the test record for O=C(O)c1cc(-c2ccc3cc(O)c(O)cc3c2)ccc1O ?
label 0

Hi, sorry to bother you, what did the test record for O=C1CC(=O)n2cnc3cccc(c32)N1 ?
label 0

====

# GI50 listing for each entry below
# Test system: UACC-257
# testDetails: NCI tumour cell line growth inhibition, 48 h
Active and inactive are the calls of the source. No stated cut-off is given here; in the data, active = GI50 up to about 1.1 µM and inactive = higher.

Below are worked cases with known answers.
Dear colleague, please send me the reported GI50 for C=C[C@@]1(C)CCC2(O)C(CCC3C2(C)CCC[C@@]3(C)COC(=O)CC(=O)OC)C1 (stereo not given in full) when you can.
20.2 µM (inactive)

Dear colleague, please send me the reported GI50 for N#CC(C(=O)CCC(=O)Nc1ccc(Cl)cc1)c1ccccc1Cl (stereo not given) when you can.
> 100 µM (inactive)

Dear colleague, please send me the reported GI50 for O=C(CC(=O)N1N=C(N2c3ccccc3Sc3ccccc32)CC1c1ccccc1)Nc1ccccc1Cl (stereo not given) when you can.
> 100 µM (inactive)

Dear colleague, please send me the reported GI50 for CC(=O)Nc1ccc(OC/C(N)=N/NC(=O)c2ccncc2)cc1 when you can.
> 100 µM (inactive)

In the following, a different molecule is considered.
Dear colleague, please send me the reported GI50 for Cc1ccc2c(=O)c3cccc(CC(=O)O)c3[nH]c2c1C when you can.
> 100 µM (inactive)

====

# System: SK-MEL-28
# testDetails: NCI tumour cell line growth inhibition, 48 h
Calls of active or inactive are those of the source. Cut-off read from the data, not from the text of the source: active = GI50 up to about 1.1 µM and inactive = higher.
measuredParameter: GI50

Dear colleague, please send me the reported GI50 for COc1ccc(C2c3cc4c(cc3C(O)C3CCC(=O)N23)OCO4)cc1 (centres undefined) when you can.
> 100 µM (inactive)

Dear colleague, please send me the reported GI50 for COC(=O)C(=O)C(C(=O)OC)C(=O)C(=O)Nc1cc(Cl)c(C)cc1S(=O)(=O)O (centres undefined) when you can.
> 100 µM (inactive)

Dear colleague, please send me the reported GI50 for Cc1cc(S(=O)(=O)Nc2nc(N)n(-c3cnc4ccccc4n3)n2)c(S)cc1Cl when you can.
> 100 µM (inactive)

Dear colleague, please send me the reported GI50 for S=C(Nc1ccc2c(c1)oc1ccccc12)c1cccs1 when you can.
> 100 µM (inactive)

Dear colleague, please send me the reported GI50 for NC(=O)/C(=N\NC(=O)C[n+]1ccccc1)C1NC(=O)NC1=O (centres undefined) when you can.
> 100 µM (inactive)

---
Dear colleague, please send me the reported GI50 for O=C(NNC(=O)c1ccccc1Cl)c1ccccc1O when you can.
> 100 µM (inactive)

Dear colleague, please send me the reported GI50 for CN(C)Cc1cc(/C=C/C(=O)c2ccc(Br)cc2)cc(CN(C)C)c1O when you can.
17.1 µM (inactive)
